# method: Mouse pharmacokinetic test
# Assay type: in vivo, CD-1 mice
# condition_label: male, CD-1, plasma, oral gavage 10 mg/kg
experimental_endpoint: Cmax (ng/mL)
The reply should contain only the number, in ng/mL.

Look over these answered cases.
| record_smiles | Cmax (ng/mL) |
| --- | --- |
| COc1ccc([C@@H]2CN(C(=O)[C@@H](O)CO)C[C@@]2(C)[C@@H](C)O)cc1OC1CN(c2ncc(C)cc2F)C1 | 378 |
| COc1ccc([C@@H]2CN(C(=O)[C@@H](O)CO)C[C@@]2(C)[C@@H](C)O)cc1OC1CN(c2cc(C)c(C)cn2)C1 | 298 |

Ask | Which Cmax is listed for COc1ccc([C@@H]2CN(C(=O)[C@@H](O)CO)C[C@@]2(C)[C@@H](C)O)cc1OC1CN(c2cc(C#N)c(C)cn2)C1 ?
Reply | 339

----------
Entries below carry reported pIC50 on PDE4D (Homo sapiens, UniProt Q08499).
Sequence (Q08499 whole entry): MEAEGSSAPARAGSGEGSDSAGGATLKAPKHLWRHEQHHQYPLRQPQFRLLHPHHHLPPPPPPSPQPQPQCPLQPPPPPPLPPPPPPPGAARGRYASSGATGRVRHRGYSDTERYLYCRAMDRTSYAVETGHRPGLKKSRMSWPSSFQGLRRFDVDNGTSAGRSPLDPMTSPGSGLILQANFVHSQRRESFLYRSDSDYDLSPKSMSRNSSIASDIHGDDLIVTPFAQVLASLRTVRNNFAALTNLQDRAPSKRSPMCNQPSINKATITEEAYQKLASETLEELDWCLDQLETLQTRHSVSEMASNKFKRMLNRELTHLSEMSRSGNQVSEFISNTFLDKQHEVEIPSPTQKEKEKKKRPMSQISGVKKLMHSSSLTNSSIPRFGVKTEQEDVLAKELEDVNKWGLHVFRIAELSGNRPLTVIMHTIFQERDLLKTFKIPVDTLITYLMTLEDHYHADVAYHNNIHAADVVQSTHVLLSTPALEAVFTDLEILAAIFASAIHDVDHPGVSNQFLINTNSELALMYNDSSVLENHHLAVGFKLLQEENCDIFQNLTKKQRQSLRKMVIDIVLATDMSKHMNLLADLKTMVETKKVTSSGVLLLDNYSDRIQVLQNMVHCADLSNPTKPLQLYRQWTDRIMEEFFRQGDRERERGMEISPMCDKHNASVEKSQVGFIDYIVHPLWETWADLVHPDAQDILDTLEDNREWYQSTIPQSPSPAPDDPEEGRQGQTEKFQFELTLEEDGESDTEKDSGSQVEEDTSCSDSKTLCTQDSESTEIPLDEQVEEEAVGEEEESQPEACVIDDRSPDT
pIC50 field: float, defined as -log10 of concentration (mol/L).

| compound | observed_measurement |
| --- | --- |
| CCOc1ccc(N2CC(Oc3cc([C@@H]4CN(C(=O)[C@@H](O)CO)C[C@@]4(C)[C@@H](C)O)ccc3OC)C2)nc1 [Compound 022] | 8.93 |
| COc1ccc([C@@H]2CN(C(=O)[C@@H](O)CO)C[C@@]2(C)[C@@H](C)O)cc1OC1CN(c2cc(C)c(C)cn2)C1 [Compound 008] | 8.45 |

Ask | Which pIC50 is listed for COc1ccc([C@@H]2CN(C(=O)[C@@H](O)CO)C[C@@]2(C)[C@@H](C)O)cc1OC1CN(c2cc(C)c(Cl)cn2)C1 [Compound 010] ?
Reply | 9.02

Ask | COc1ccc([C@@H]2CN(C(=O)[C@@H](O)CO)C[C@@]2(C)[C@@H](C)O)cc1OC1CN(c2ccc(C)c(C#N)n2)C1 [Compound 003] ?
Reply | 9.41

Ask | COc1ccc([C@@H]2CN(C(=O)[C@@H](O)CO)C[C@@]2(C)[C@@H](C)O)cc1OC1CN(c2cc(Cl)c(C)cn2)C1 [Compound 002] ?
Reply | 9.80

Ask | COc1ccc([C@@H]2CN(C(=O)[C@@H](O)CO)C[C@@]2(C)[C@@H](C)O)cc1OC1CN(c2cc(C)c(C#N)cn2)C1 [Compound 012] ?
Reply | 9.25

----------
Reported AUC(0-t) is given for each of the following molecules.
# method: Mouse pharmacokinetic test
# Type: in vivo, CD-1 mice
# condition_label: male, CD-1, plasma, oral gavage 10 mg/kg
Entry format: amount then unit.

Look over these answered cases.
| molecule | AUC(0-t) |
| --- | --- |
| COc1ccc([C@@H]2CN(C(=O)[C@@H](O)CO)C[C@@]2(C)[C@@H](C)O)cc1OC1CN(c2ncc(C)cc2F)C1 | 896 ng·h/mL |
| COc1ccc([C@@H]2CN(C(=O)[C@@H](O)CO)C[C@@]2(C)[C@@H](C)O)cc1OC1CN(c2ccc(Cl)c(C)n2)C1 | 1050 ng·h/mL |
| COc1ccc([C@@H]2CN(C(=O)[C@@H](O)CO)C[C@@]2(C)[C@@H](C)O)cc1OC1CN(c2cc(C)c(Cl)cn2)C1 | 645 ng·h/mL |
| COc1ccc([C@@H]2CN(C(=O)[C@@H](O)CO)C[C@@]2(C)[C@@H](C)O)cc1OC1CN(c2cc(C#N)c(C)cn2)C1 | 311 ng·h/mL |
| COc1ccc([C@@H]2CN(C(=O)[C@@H](O)CO)C[C@@]2(C)[C@@H](C)O)cc1OC1CN(c2ccc(C)cn2)C1 [Positive control compound, reference compound] | 237 ng·h/mL |

# context switch: different molecule, same AUC(0-t)
Ask | Which AUC(0-t) is listed for COc1ccc([C@@H]2CN(C(=O)[C@@H](O)CO)C[C@@]2(C)[C@@H](C)O)cc1OC1CN(c2cc(C)c(C)cn2)C1 ?
Reply | 625 ng·h/mL
